Origin of the recorded values: ChEMBL document CHEMBL1909294

# Tested on: Hepatotoxicity
# measurement.conditions: Liver
quantity: HepSE_jaundice
One number for each entry.

These recorded examples may help you get a feel for the data.
molecule	tgt	HepSE_jaundice
O=C(O)c1cn(C2CC2)c2cc(N3CCNCC3)c(F)cc2c1=O [CIPROFLOXACIN]	Hepatotoxicity	1
COc1cc([C@@H]2c3cc4c(cc3[C@@H](O[C@@H]3O[C@@H]5CO[C@@H](C)O[C@H]5[C@H](O)[C@H]3O)[C@H]3COC(=O)[C@H]23)OCO4)cc(OC)c1O [ETOPOSIDE]	Hepatotoxicity	0
CNCCCC1c2ccccc2C=Cc2ccccc21 [PROTRIPTYLINE]	Hepatotoxicity	1
Cc1cccc(C)c1OCC(C)N (configuration not stated) [MEXILETINE]	Hepatotoxicity	0

Please give HepSE_jaundice, item by item, for the list that follows.
1. NC(CO)(CO)CO [TROMETHAMINE]
2. CC(C)(C)NCC(O)c1ccc(O)c(CO)c1 (configuration not stated) [ALBUTEROL]
3. Cn1cnc([N+](=O)[O-])c1Sc1ncnc2nc[nH]c12 [AZATHIOPRINE]

Response:
0
0
0

---

Reported values: HepSE_Combined Scores for Hepatotoxicity, one per item.
Answers are plain numbers.

compound	quantity	reported.result
O=C(NCC1CCCCN1)c1cc(OCC(F)(F)F)ccc1OCC(F)(F)F (centres undefined) [FLECAINIDE]	HepSE_Combined Scores	2
Cc1ccccc1C(OCCN(C)C)c1ccccc1 (centres undefined)	HepSE_Combined Scores	0
CC(C)OC(=O)CCC/C=C\C[C@@H]1[C@@H](CC[C@@H](O)CCc2ccccc2)[C@H](O)C[C@@H]1O	HepSE_Combined Scores	0

Now, please, on to the next compound.
Per the record, `C=CCN1CC[C@]23c4c5ccc(O)c4O[C@H]2C(=O)CC[C@@]3(O)[C@H]1C5` has HepSE_Combined Scores of 0

---

Reported values: HepSE_jaundice for Hepatotoxicity, one per item.
Give bare numbers.

These recorded examples may help you get a feel for the data.
compound	HepSE_jaundice
CN1CCCC(n2nc(Cc3ccc(Cl)cc3)c3ccccc3c2=O)CC1 (stereo not given)	0
CCCc1c2oc(C(=O)[O-])cc(=O)c2cc2c(=O)cc(C(=O)[O-])n(CC)c12.[Na+].[Na+] [NEDOCROMIL SODIUM]	0

Please give HepSE_jaundice, item by item, for the list that follows.
1. NCCCC(N)(C(=O)O)C(F)F (stereo not given)
2. Oc1ccc2c3c1O[C@H]1[C@@H](O)CC[C@@]4(O)[C@@H](C2)N(CC2CCC2)CC[C@]314
3. CC(C)[C@H](N)C(=O)OCCOCn1cnc2c(=O)[nH]c(N)nc21

Response:
[0, 0, 0]

---

Reported values: HepSE_jaundice for Hepatotoxicity, one per item.

These recorded examples may help you get a feel for the data.
molecule	quantity	reported.result
CCOC(=O)C1=C(C)NC(C)=C(C(=O)OC)C1c1cccc(Cl)c1Cl (stereo unspecified)	HepSE_jaundice	0
CN1C[C@H](C(=O)N[C@]2(C)O[C@@]3(O)[C@@H]4CCCN4C(=O)[C@H](Cc4ccccc4)N3C2=O)C=C2c3cccc4[nH]cc(c34)C[C@H]21	HepSE_jaundice	0
COc1ccc(C[C@@H]2c3cc(OC)c(OC)cc3CC[N@+]2(C)CCC(=O)OCCCCCOC(=O)CC[N@@+]2(C)CCc3cc(OC)c(OC)cc3[C@H]2Cc2ccc(OC)c(OC)c2)cc1OC	HepSE_jaundice	0
COc1c2occc2cc2ccc(=O)oc12	HepSE_jaundice	0
CC(C)(C)NC(=O)[C@@H]1CN(Cc2cccnc2)CCN1C[C@@H](O)C[C@@H](Cc1ccccc1)C(=O)N[C@H]1c2ccccc2C[C@H]1O.O	HepSE_jaundice	1

Please give HepSE_jaundice, item by item, for the list that follows.
1. O=C(O)CCNC(=O)c1ccc(/N=N/c2ccc(O)c(C(=O)O)c2)cc1 [BALSALAZIDE]
2. CC(=O)NCCCS(=O)(=O)O [ACAMPROSATE]
3. CCc1nn(CCCN2CCN(c3cccc(Cl)c3)CC2)c(=O)n1CCOc1ccccc1
4. C[C@]12C=CC(=O)C=C1CC[C@@H]1[C@@H]2C(=O)C[C@@]2(C)[C@H]1CC[C@]2(O)C(=O)CO
5. O=C1c2cccc3c2[C@H](CCC3)CN1[C@@H]1CN2CCC1CC2
6. CCCCCOC(=O)Nc1nc(=O)n([C@@H]2O[C@H](C)[C@@H](O)[C@H]2O)cc1F

Response:
1: 1; 2: 0; 3: 0; 4: 0; 5: 0; 6: 1

---

Reported values: HepSE_bilirubinemia for Hepatotoxicity, one per item.
Numbers only.

compound	quantity	reported.result
CC(C)(C)NC(=O)[C@@H]1CN(Cc2cccnc2)CCN1C[C@@H](O)C[C@@H](Cc1ccccc1)C(=O)N[C@H]1c2ccccc2C[C@H]1O.O	HepSE_bilirubinemia	1

Please give HepSE_bilirubinemia, item by item, for the list that follows.
1. FC(F)OC(F)C(F)(F)F (configuration not stated)
2. CC(C)OC(=O)C(C)(C)Oc1ccc(C(=O)c2ccc(Cl)cc2)cc1 [FENOFIBRATE]
3. COc1ccc2[nH]c([S+]([O-])Cc3ncc(C)c(OC)c3C)nc2c1 (configuration not stated)

Response:
1: 0; 2: 0; 3: 1

---

Reported values: HepSE_hepatitis for Hepatotoxicity, one per item.
Give bare numbers.

compound	quantity	reported.result
NC(=O)C[S+]([O-])C(c1ccccc1)c1ccccc1 (configuration not stated) [MODAFINIL]	HepSE_hepatitis	0
CCc1c(C)[nH]c2c1C(=O)C(CN1CCOCC1)CC2 (configuration not stated) [MOLINDONE]	HepSE_hepatitis	0

Please give HepSE_hepatitis, item by item, for the list that follows.
1. Cl.N [AMMONIUM CHLORIDE]
2. Nc1nc(O)c2ncn(COC(CO)CO)c2n1 [GANCICLOVIR]
3. CN1C2CCCC1CC(NC(=O)c1nn(C)c3ccccc13)C2 (configuration not stated) [GRANISETRON]
4. CO/N=C1\CN(c2nc3c(cc2F)c(=O)c(C(=O)O)cn3C2CC2)CC1CN (configuration not stated) [GEMIFLOXACIN]
5. N#Cc1cc(NC(=O)C(=O)O)c(Cl)c(NC(=O)C(=O)O)c1 [LODOXAMIDE]
6. CCC(=O)O[C@](Cc1ccccc1)(c1ccccc1)[C@H](C)CN(C)C [PROPOXYPHENE]

Response:
0
1
0
1
0
0

Please give HepSE_hepatitis, item by item, for the list that follows.
1. C[N+](C)(C)CC(=O)O [BETAINE]
2. CC(=O)S[C@@H]1CC2=CC(=O)CC[C@]2(C)[C@H]2CC[C@@]3(C)[C@@H](CC[C@@]34CCC(=O)O4)[C@H]12 [SPIRONOLACTONE]
3. Cc1nc(Nc2ncc(C(=O)Nc3c(C)cccc3Cl)s2)cc(N2CCN(CCO)CC2)n1.O [DASATINIB]

Response:
1. 0
2. 0
3. 1

Please give HepSE_hepatitis, item by item, for the list that follows.
1. Oc1ccc(OCc2ccccc2)cc1 [MONOBENZONE]
2. CN(C)C(=O)C(CCN1CCC(O)(c2ccc(Cl)cc2)CC1)(c1ccccc1)c1ccccc1 [LOPERAMIDE]
3. NCC(=O)CCC(=O)O [AMINOLEVULINIC ACID]
4. CCOc1cc(CC(=O)N[C@@H](CC(C)C)c2ccccc2N2CCCCC2)ccc1C(=O)O [REPAGLINIDE]

Response:
[0, 0, 0, 1]

Please give HepSE_hepatitis, item by item, for the list that follows.
1. CN(C)CCOC(=O)C(c1ccccc1)C1(O)CCCC1 (configuration not stated) [CYCLOPENTOLATE]
2. CC(C)C(=O)OCC(=O)[C@@]12O[C@H](C3CCCCC3)O[C@@H]1C[C@H]1[C@@H]3CCC4=CC(=O)C=C[C@]4(C)[C@H]3[C@@H](O)C[C@@]12C [CICLESONIDE]
3. OC(CCN1CCCCC1)(c1ccccc1)C1CC2C=CC1C2 (configuration not stated) [BIPERIDEN]
4. Clc1ccc2c(c1)CCc1cccnc1C2=C1CCNCC1 [DESLORATADINE]
5. CC(C)NCC(O)c1cc(O)cc(O)c1 (configuration not stated) [METAPROTERENOL]

Response:
1: 0; 2: 0; 3: 0; 4: 1; 5: 0

---

Reported values: HepSE_Combined Scores for Hepatotoxicity, one per item.
Numbers only.

molecule	HepSE_Combined Scores
CCC1(c2ccccc2)NC(=O)N(C)C1=O (stereo unspecified)	2
C[C@H]1C[C@H]2[C@@H]3CCC4=CC(=O)C=C[C@]4(C)[C@@]3(F)[C@@H](O)C[C@]2(C)[C@@]1(O)C(=O)CCl	0
NCCCC(=O)O	0

Please give HepSE_Combined Scores, item by item, for the list that follows.
1. CC(C)c1nc(CN(C)C(=O)N[C@H](C(=O)N[C@@H](Cc2ccccc2)C[C@H](O)[C@H](Cc2ccccc2)NC(=O)OCc2cncs2)C(C)C)cs1
2. CCN(CCO)CCCC(C)Nc1ccnc2cc(Cl)ccc12 (stereo unspecified) [HYDROXYCHLOROQUINE]
3. Cc1[nH]cnc1CN1CCc2c(c3ccccc3n2C)C1=O
4. CN(C)CC(c1ccc(O)cc1)C1(O)CCCCC1 (stereo unspecified)
5. CN(Cc1cnc2nc(N)nc(N)c2n1)c1ccc(C(=O)N[C@@H](CCC(=O)O)C(=O)O)cc1 [METHOTREXATE]

Response:
1: 3; 2: 1; 3: 3; 4: 0; 5: 5

Please give HepSE_Combined Scores, item by item, for the list that follows.
1. COC(=O)C1=C(C)NC(C)=C(C(=O)OC)C1c1ccccc1[N+](=O)[O-]
2. CCC(=O)O[C@@H](O[P@](=O)(CCCCc1ccccc1)CC(=O)N1C[C@H](C2CCCCC2)C[C@H]1C(=O)O)C(C)C
3. CN1C(=O)CC(C)(c2ccccc2)C1=O (stereo unspecified) [METHSUXIMIDE]
4. CCCC(C)C1(CC)C(=O)NC(=O)NC1=O (stereo unspecified)

Response:
[2, 4, 0, 0]

Please give HepSE_Combined Scores, item by item, for the list that follows.
1. O=c1[nH]c(=O)n([C@H]2C[C@H](O)[C@@H](CO)O2)cc1I
2. Cc1ccc(O)c([C@H](CCN(C(C)C)C(C)C)c2ccccc2)c1
3. O=c1n(CCCN2CCN(c3cccc(Cl)c3)CC2)nc2ccccn12

Response:
0
0
2
